# target.of.assay: FGFR1-BCR Ba/F3 cells (Homo sapiens, UniProt P11362)
# Sequence (P11362 22-822 limits assumed, change not shown): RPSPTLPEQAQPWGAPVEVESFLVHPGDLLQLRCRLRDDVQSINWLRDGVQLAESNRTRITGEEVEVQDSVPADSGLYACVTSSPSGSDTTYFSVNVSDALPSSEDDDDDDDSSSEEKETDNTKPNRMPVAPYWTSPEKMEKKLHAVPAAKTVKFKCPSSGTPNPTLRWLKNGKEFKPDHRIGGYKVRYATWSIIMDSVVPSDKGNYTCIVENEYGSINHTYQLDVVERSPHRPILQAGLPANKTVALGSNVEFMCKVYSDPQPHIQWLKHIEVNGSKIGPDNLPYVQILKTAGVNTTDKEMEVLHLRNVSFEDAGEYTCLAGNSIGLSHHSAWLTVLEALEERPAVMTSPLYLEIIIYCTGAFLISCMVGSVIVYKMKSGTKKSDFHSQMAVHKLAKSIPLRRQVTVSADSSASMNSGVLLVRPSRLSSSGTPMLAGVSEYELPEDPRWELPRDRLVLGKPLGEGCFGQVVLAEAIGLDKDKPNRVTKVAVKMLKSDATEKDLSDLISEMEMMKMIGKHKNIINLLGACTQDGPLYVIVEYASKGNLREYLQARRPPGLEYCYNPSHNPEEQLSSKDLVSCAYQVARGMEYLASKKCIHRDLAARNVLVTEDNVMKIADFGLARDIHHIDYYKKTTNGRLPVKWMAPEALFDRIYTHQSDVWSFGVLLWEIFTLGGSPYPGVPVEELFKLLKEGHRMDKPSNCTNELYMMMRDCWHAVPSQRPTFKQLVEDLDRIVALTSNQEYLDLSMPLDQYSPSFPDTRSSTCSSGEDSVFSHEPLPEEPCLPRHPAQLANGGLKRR
# procedure.summary: Ba/F3 cell viability assay (CellTiter-Glo 2.0), FGFR1-BCR Ba/F3
# Format: cell-based
# setup.conditions: read-out: Ba/F3 Cells FGFR1 (IC50 nM), 48 hours, Cell Titer Glo 2.0
// values below are reported IC50

// known answers, use as guide
compound | measurement
C[C@@H](Oc1ccc2[nH]nc(-c3ccc(N4CCCNC(=O)C4)nc3)c2c1)c1c(Cl)cncc1Cl [Example 35] | > 300 nM
CCS(=O)(=O)N1CC2(CN(c3ccc(-c4n[nH]c5ccc(O[C@H](C)c6c(Cl)cncc6Cl)cc45)cn3)C2)C1 [Example 124] | 100 to 300 nM
C[C@@H](Oc1ccc2[nH]nc(-c3cnc(N4CCC5(CCCN5)CC4)nc3)c2c1)c1c(Cl)cncc1Cl [Example 56] | > 300 nM
C[C@@H](Oc1ccc2[nH]nc(-c3ccc(N4CCC5(CC4)CCS(=O)(=O)C5)nc3)c2c1)c1c(Cl)cncc1Cl [Example 78] | 20 to 100 nM
C[C@@H](Oc1ccc2[nH]nc(-c3ccc(N4CCC5(CC4)C(=O)NCCN5C)nc3)c2c1)c1c(Cl)cncc1Cl [Example 34] | 20 to 100 nM

Requested read-out: IC50. Entry: C[C@@H](Oc1ccc2[nH]nc(-c3cnc(N4CCNCC4)c(F)c3)c2c1)c1c(Cl)cncc1Cl [Example 10]
20 to 100 nM

Requested read-out: IC50. Entry: C[C@@H](Oc1ccc2[nH]nc(-c3ccc(N4CCNC(=O)C4)nc3)c2c1)c1c(Cl)cncc1Cl [Example 36]
20 to 100 nM

Requested read-out: IC50. Entry: C[C@@H](Oc1ccc2[nH]nc(-c3cnc(N4CC5(CCS(=O)(=O)C5)C4)nc3)c2c1)c1c(Cl)cncc1Cl [Example 122]
20 to 100 nM

Requested read-out: IC50. Entry: C[C@@H](Oc1ccc2[nH]nc(-c3ccc(N4CC5(CCCN(S(C)(=O)=O)C5)C4)nc3)c2c1)c1c(Cl)cncc1Cl [Example 162]
100 to 300 nM

Requested read-out: IC50. Entry: C[C@@H](Oc1ccc2[nH]nc(-c3ccc(N4CC5(CCN(S(C)(=O)=O)CC5)C4)nc3)c2c1)c1c(Cl)cncc1Cl [Example 111]
100 to 300 nM

Requested read-out: IC50. Entry: COC(=O)N1CC2(C1)CN(c1ncc(-c3n[nH]c4ccc(O[C@H](C)c5c(C)cnnc5C)cc34)cn1)C2 [Example 143]
> 300 nM

Requested read-out: IC50. Entry: C[C@@H](Oc1ccc2[nH]nc(-c3cnc(N4CCNCC4)nc3)c2c1)c1c(Cl)cncc1Cl [Example 11]
100 to 300 nM

Requested read-out: IC50. Entry: C[C@@H](Oc1ccc2[nH]nc(-c3cnc(N4CCN(C(=O)N5CCN(C)CC5)CC4)c(F)c3)c2c1)c1c(Cl)cncc1Cl [Example 13]
100 to 300 nM

Requested read-out: IC50. Entry: C[C@@H](Oc1ccc2[nH]nc(-c3cnc(N4CCC5(CCS(=O)(=O)C5)C4)nc3)c2c1)c1c(Cl)cncc1Cl (some centres unmarked) [Example 127]
100 to 300 nM

====

# target.of.assay: FGFR3 (V555M) (Homo sapiens (Human), UniProt P22607, V555M)
# Sequence (P22607 23-806 V555M): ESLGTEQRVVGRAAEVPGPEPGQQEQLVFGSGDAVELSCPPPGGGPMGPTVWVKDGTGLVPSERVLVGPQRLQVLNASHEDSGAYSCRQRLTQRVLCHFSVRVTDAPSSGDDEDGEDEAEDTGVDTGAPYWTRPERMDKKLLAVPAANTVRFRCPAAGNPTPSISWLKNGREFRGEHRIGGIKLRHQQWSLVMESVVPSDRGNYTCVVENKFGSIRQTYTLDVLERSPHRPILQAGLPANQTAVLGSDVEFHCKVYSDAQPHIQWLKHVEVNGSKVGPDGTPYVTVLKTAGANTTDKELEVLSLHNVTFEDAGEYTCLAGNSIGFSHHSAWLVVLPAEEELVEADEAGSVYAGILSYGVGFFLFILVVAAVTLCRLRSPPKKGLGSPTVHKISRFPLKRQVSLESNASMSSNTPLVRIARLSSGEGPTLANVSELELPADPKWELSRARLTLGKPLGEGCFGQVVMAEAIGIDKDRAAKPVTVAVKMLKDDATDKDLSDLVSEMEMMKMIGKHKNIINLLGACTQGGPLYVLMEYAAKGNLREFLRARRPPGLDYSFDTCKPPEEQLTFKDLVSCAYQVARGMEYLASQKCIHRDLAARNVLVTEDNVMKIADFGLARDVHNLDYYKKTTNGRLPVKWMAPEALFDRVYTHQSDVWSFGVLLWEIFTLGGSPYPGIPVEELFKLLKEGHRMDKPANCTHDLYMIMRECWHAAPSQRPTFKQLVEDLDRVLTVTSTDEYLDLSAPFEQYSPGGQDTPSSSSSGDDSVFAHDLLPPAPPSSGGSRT
# procedure.summary: Kinase assay, binding constants (Kd), kinase-tagged T7 phage, qPCR
# setup.conditions: V555M mutant
// values below are reported Kd

// known answers, use as guide
compound | Kd
Cc1cc(-c2n[nH]c3ccc(O[C@H](C)c4c(C)cnnc4C)cc23)cnc1N1CCN2C(=O)NCC2C1 (some centres unmarked) | 1 to 20 nM
C[C@@H](Oc1ccc2[nH]nc(-c3cnc(N4CC[C@@H](C(C)(C)O)C4)c(C#N)c3)c2c1)c1c(Cl)cncc1Cl | 20 to 100 nM
COC(=O)N1CC2(C1)CN(c1ncc(-c3n[nH]c4ccc(O[C@H](C)c5c(C)cnnc5C)cc34)cn1)C2 | 1 to 20 nM
C[C@@H](Oc1cc2c(-c3ccc(N4CC5(C4)CN(S(C)(=O)=O)C5)nc3)n[nH]c2cc1Cl)c1c(Cl)cncc1Cl | 1 to 20 nM
Cc1cc2[nH]nc(-c3cnc(N4CC5(C4)CN(S(C)(=O)=O)C5)c(F)c3)c2cc1O[C@H](C)c1c(Cl)cnnc1Cl | 1 to 20 nM

Requested read-out: Kd. Entry: C[C@@H](Oc1ccc2[nH]nc(-c3ccc(N4CC5(CCNCC5)C4)nc3)c2c1)c1c(Cl)cncc1Cl
1 to 20 nM

Requested read-out: Kd. Entry: Cc1ncc(Cl)c([C@@H](C)Oc2ccc3[nH]nc(-c4cnn(C5CCN(C6COC6)CC5)c4)c3c2)c1Cl
1 to 20 nM
